target: Ubiquitin carboxyl-terminal hydrolase 30 (Homo sapiens); assay: inhibitors of ubiquitin-specific protease 30 deubiquitylating enzyme, concentration dependence, in vitro biochemical, validation of primary hits (AID 1645865); details: purified USP30, Ub-rhodamine cleavage, fluorescence, 2 h
Active and inactive are the calls of the source.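 Rule for the calls: active = maximal inhibition of the USP30 enzyme reaching 30% or more across the dose series; inactive = the rest.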
Outcome codes: active, inactive

- Cc1ccc(NC(=O)c2ccn(COc3ccc(F)cc3)n2)nc1: active
- Cn1c(=O)c2c(ncn2CC(=O)NC2CCCc3ccccc32)n(C)c1=O (configuration not stated): inactive
- COc1ccc(-n2c(SCC(=O)c3ccc(F)cc3)nnc2-c2cccnc2)cc1: active
- O=C(NCc1ccccc1)c1ccc2c(=O)n(-c3ccccc3)c(=O)[nH]c2c1: active
- CCc1ccc(NC(=O)CN=C2NS(=O)(=O)C(c3ccc(CC)cc3)=C2C)cc1: active
- CSc1nccc(-c2ccc(F)cc2)c1C#N: active
- O=C(CN1C(=O)COc2ccc(Cl)cc21)Nc1cccc2ncccc12: inactive
- CC(=O)Nc1ccc(S(=O)(=O)N2CCCC(C(=O)Nc3cccc4ccccc34)C2)cc1 (configuration not stated): active
- O=C(Nc1ccc2nccnc2c1)c1cccc(C(F)(F)F)c1: inactive
- CCNc1nc(SCC(C)=O)nc2sc3c(c12)CCC(C)C3 (configuration not stated): inactive
- CN1C(=O)[C@]23CC4=CC=C[C@H](O)[C@H]4N2C(=O)[C@@]1(CO)SS3: active
- Cc1nc(-c2cccc(NC(=O)C3CCN(c4ccccc4)C3=O)c2)no1 (configuration not stated): active
- CS(=O)(=O)N1CCCN(c2nc3cc(Cl)ccc3n3cccc23)CC1: inactive
- O=C(CCn1c(=O)c2sccc2n(CC(=O)OCc2ccccc2)c1=O)NCc1ccc2c(c1)OCO2: active
- O=C(Cn1cnc2c(oc3ccccc32)c1=O)NCc1ccccc1Cl: active
- COCCNC(=O)c1ccnn1-c1ccc2ccc(-c3cccnc3)cn12: inactive
- O=C(Cc1ccccc1F)N1CCC2(CC1)CC1(CO2)Nc2ccccc2-n2cccc21 (configuration not stated): inactive
- C=C1Nc2ccccc2C(=O)N1c1cccc(NC(=O)c2ccc(C)c(C)c2)c1: inactive
- Cc1cc(NC(=O)c2cc(-c3cccnc3)n[nH]2)ccc1Br: active
- COc1ccc(-n2nnc(C(=O)Nc3ccccc3)c2N)cc1: inactive
- Cc1ccc(NC(=O)c2cnc(N3CCOCC3)nc2)cc1F: active
- O=C(Nc1ccc2c(c1)OCO2)c1cc(-c2cccnc2)n(-c2ccccc2)n1: inactive

---

molecular target: Ubiquitin carboxyl-terminal hydrolase 30 (Homo sapiens) (UniProt Q70CQ3); assay: inhibitors of ubiquitin-specific protease 30 deubiquitylating enzyme, concentration dependence, in vitro biochemical, validation of primary hits (AID 1645865); conditions: purified USP30, Ub-rhodamine cleavage, fluorescence, 2 h
Sequence (Q70CQ3 whole entry, looked up): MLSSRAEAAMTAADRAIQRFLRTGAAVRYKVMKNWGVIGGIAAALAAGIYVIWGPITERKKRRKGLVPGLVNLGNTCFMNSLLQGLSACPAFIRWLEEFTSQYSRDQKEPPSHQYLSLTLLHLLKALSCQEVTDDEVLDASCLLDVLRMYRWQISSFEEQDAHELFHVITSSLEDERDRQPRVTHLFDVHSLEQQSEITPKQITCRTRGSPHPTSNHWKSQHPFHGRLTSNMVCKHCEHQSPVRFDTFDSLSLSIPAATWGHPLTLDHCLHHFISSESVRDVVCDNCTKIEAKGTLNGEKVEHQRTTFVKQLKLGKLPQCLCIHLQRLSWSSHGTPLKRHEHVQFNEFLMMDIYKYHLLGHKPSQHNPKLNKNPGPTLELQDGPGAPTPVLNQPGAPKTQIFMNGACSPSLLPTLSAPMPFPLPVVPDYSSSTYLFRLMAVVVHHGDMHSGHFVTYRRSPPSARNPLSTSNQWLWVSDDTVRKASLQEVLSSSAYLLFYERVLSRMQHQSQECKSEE
The source made the active and inactive calls.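 How the source made its calls: active means maximal inhibition of the USP30 enzyme reaching 30% or more across the dose series; inactive means the rest.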
Outcome codes: active, inactive

• COc1ccc(CCN2COc3c(cc(Cl)c4cccnc34)C2)cc1OC = active
• COCC(=O)Nc1cc(F)c2nc(N3CCOCC3)ccc2c1 = inactive
• Cn1c(COc2ccccc2)nnc1SCC(=O)Nc1ccc(N2CCOCC2)cc1 = active
• CCOc1ccccc1C(=O)NCC(=O)OC(C(=O)c1c[nH]c2ccccc12)c1ccccc1 (stereo not given) = inactive
• Cc1cccc(-n2ccnc(SCC(=O)Nc3ccc(Cl)cc3F)c2=O)c1 = active

---

biological target: Ubiquitin carboxyl-terminal hydrolase 30 (Homo sapiens) (UniProt Q70CQ3); experiment: inhibitors of ubiquitin-specific protease 30 deubiquitylating enzyme, concentration dependence, in vitro biochemical, validation of primary hits (AID 1645865); conditions: purified USP30, Ub-rhodamine cleavage, fluorescence, 2 h
Calls of active or inactive are those of the source.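 Rule for the calls: active = maximal inhibition of the USP30 enzyme reaching 30% or more across the dose series; inactive = the rest.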
Outcome codes: Y for active, N for inactive

- Cc1nn(-c2nc3ccccc3[nH]2)c2c1C(c1cccs1)CC(=O)N2 (stereo not given): N
- N#Cc1cccc(S(=O)(=O)N2CCc3nc4ccccc4n3CC2)c1: Y
- COc1ccc(CCNC(=O)c2c(N)n(-c3cccc(Cl)c3)c3nc4ccccc4nc23)cc1: N
- Cc1ccc(C)c(NC(=O)CCc2nc(CSc3nc4ccccc4o3)no2)c1: Y
- O=S(=O)(c1cccc(F)c1)N1CCc2nc3ccccc3n2CC1: Y
- CCCc1nc2sc3c(NCCN4CCOCC4)ncnc3c2c2c1CCC2: N
- COc1ccc(CCNC(=O)c2ccc3ccccc3c2)cc1OC: N
- Cc1cc(C)nc(-n2nc(C)c3c2NC(=O)CSC3c2ccc(F)cc2F)n1 (stereo not given): Y
- O=C(Nc1cccc(-c2nc3ccccc3[nH]2)c1)c1cc2ccccc2oc1=O: Y
- Cc1ccc2c(=O)c3c([nH]c2c1C)CCN(CC(=O)NCc1ccccc1)C3: N
